B1: r11_951_TrROS_Hall (parent)
chain: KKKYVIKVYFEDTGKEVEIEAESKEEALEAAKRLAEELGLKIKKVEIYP

variants of: B1; assay: folding stability dG (cDNA display proteolysis); higher = more stable; conditions: PBS, room temperature
VALUE_KIND: folding stability dG (kcal/mol)
Express it in kcal/mol; write the number only.

Solved entries:
SEQ: KKKYVIKVYFEDTGKKVEIEAESKEEALEAAKRLAEELGLKIKKVEIYP [E16K]
VALUE_KIND: folding stability dG
RESULT_UNITS: kcal/mol
NUMERIC_READOUT: 4.23

SEQ: KKKYVIKVYFEDTGKEVEIEAESKEEALEAAKRLAEELGLKTKKVEIYP [I42T]
VALUE_KIND: folding stability dG
RESULT_UNITS: kcal/mol
NUMERIC_READOUT: 2.88

SEQ: KKHYVIKVYFEDTGKEVEIEAESKEEALEAAKRLAEELGLKIKKVEIYP [K3H]
VALUE_KIND: folding stability dG
RESULT_UNITS: kcal/mol
NUMERIC_READOUT: 4.39

Query block: What does the record list as folding stability dG for KKKYVIKVYFEDTGKEVEIEAESKEEALELAKRLAEELGLKIKKVEIYP [A30L] ?
Result block: 4.66

Query block: What does the record list as folding stability dG for KKKYVIKVYFEDTGKEVEFEAESKEEALEAAKRLAEELGLKIKKVEIYP [I19F] ?
Result block: 4.33

Query block: What does the record list as folding stability dG for KKKYVIKVYFEDTGKEVEIEAESKEEALEAAKRLAEELGLKIEKVEIYP [K43E] ?
Result block: 4.35

Query block: What does the record list as folding stability dG for KKKYVIKVYFEDTGKEVEIEAESKEEALEAALRLAEELGLKIKKVEIYP [K32L] ?
Result block: 4.55

Query block: What does the record list as folding stability dG for KKKYVIKVYFEDTGKEVEIEAESKEEAFEAAKRLAEELGLKIKKVEIYP [L28F] ?
Result block: 4.31

Query block: What does the record list as folding stability dG for KKKYVIKVYFEDTGKEVEIEAESWEEALEAAKRLAEELGLKIKKVEIYP [K24W] ?
Result block: 4.51
